Study Target: EphB1 (receptor of Table 1)
Procedure Summary: EphB receptor specificity panel (% binding)
// boundary case: % Binding equal to 50% maps to F; strictly smaller maps to T

Binder: SHWPVLPFAHWQ (Panned on EphB2) [SHWPVLPFAHWQ peptide (SEQ ID NO:12)]
Label: F

Prompt line: Please state whether % Binding is below 50% for GPVADAWLVYPR (Panned on EphB4) [GPVADAWLVYPR peptide (SEQ ID NO:32)]
Response line: T

Prompt line: Confirm or reject: % Binding of TNYLFSPNGPIA (Panned on EphB4; non-biotinylated form) [TNYLFSPNGPIA peptide (SEQ ID NO:24)] lies strictly below 50%
Response line: T

Prompt line: Say whether its % Binding is strictly beneath 50%. Entry: DHWPLLPYALAH (Panned on EphB2) [… peptide (SEQ ID NO:16)]
Response line: T

Prompt line: Does this binder meet the criterion % Binding < 50%? EWLSPNLAPSVR (Panned on EphB1; Footnote e: biotinylated and non-biotinylated peptides gave the same IC50) [EWLSPNLAPSVR peptide (SEQ ID NO:1)]
Response line: F

Prompt line: Strictly below 50%: is that where % Binding of WHRYPDPRMLPT (Panned on EphB2) [WHRYPDPRMLPT peptide (SEQ ID NO:7)] sits?
Response line: F

Prompt line: Is % Binding strictly under 50% for the entry THWCHLLNCAAL (Panned on EphB2) [THWCHLLNCAAL peptide (SEQ ID NO:6)] ?
Response line: F

Prompt line: Criterion: % Binding strictly below 50%. Is it met by NPVIGPIQRAWT (Panned on EphB4) [NPVIGPIQRAWT peptide (SEQ ID NO:27)] ?
Response line: T

Prompt line: Report whether reported % Binding is lower than 50% (strictly) for THWKFQPWALVT (Panned on EphB1) [THWKFQPWALVT peptide (SEQ ID NO:5)]
Response line: F

Prompt line: I wonder whether LPHGPVAAAWDA (Panned on EphB4) [LPHGPVAAAWDA peptide (SEQ ID NO:26)] has % Binding below 50%. Can you tell?
Response line: T
